# method summary: Inhibition of Plasmodium falciparum falcipain-3 expressed in Escherichia coli
measure: IC50

Past entries and their recorded results:
CC(C)(C)OC(=O)NN(CCc1ccccc1)c1nc(C#N)ncc1Br : 557 nM
CC(C)CN(NC(=O)C(C)(C)c1ccc(OCCN2CCOCC2)cc1)c1nc(C#N)ncc1Cl : 18 nM
CC(C)CN(NC(=O)c1cncc(-c2ccccc2)c1)c1nc(C#N)ncc1Cl : 26 nM
CC(=O)N[C@H]1CC[C@H](N(NC(=O)OC(C)(C)C)c2nc(C#N)ncc2Br)CC1 : 67 nM
CCCN1CCN(Cc2ccc(CC(=O)NN(CC(C)C)c3nc(C#N)ncc3Cl)cc2)CC1 : 6 nM
CC(C)CN(NC(=O)c1cccc(-c2cncnc2)c1)c1nc(C#N)ncc1Br : 12 nM
CCCC(C)CN(NC(=O)c1ccc(CN2CCN(C)CC2)cc1)c1nc(C#N)ncc1Br (stereo not given) : 52 nM
CC(C)(C)OC(=O)NN(CC1CC1)c1nc(C#N)ncc1Br : 413 nM

Dear colleague, could you send me IC50 for each of the items below? Thanks.
1. CC(C)CN(NC(=O)OC(C)(C)C)c1ncc(C#N)c(Cl)n1
2. CC(C)CCN(NC(=O)c1ccc(CN2CCN(C)CC2)cc1)c1nc(C#N)ncc1Br
3. CC(C)(C)OC(=O)NN(Cc1ccco1)c1nc(C#N)ncc1Br
4. CC(C)CN(NC(=O)c1cc2cccc(CN3CCN(C)CC3)c2o1)c1nc(C#N)ncc1Br

1. 990 nM
2. 68 nM
3. 140 nM
4. 61 nM

Dear colleague, could you send me IC50 for each of the items below? Thanks.
1. CC(C)CN(NC(=O)c1ccc(OCCN2CCOCC2)cc1)c1nc(C#N)ncc1Br
2. CN1CCN(Cc2ccc(C(=O)NN(CC3CCOCC3)c3nc(C#N)ncc3Br)cc2)CC1
3. CN1CCN(Cc2ccc(C(=O)NN(Cc3ccccc3)c3nc(C#N)ncc3Br)cc2)CC1
4. CCCCC(CCCC)CN(NC(=O)c1ccc(CN2CCN(C)CC2)cc1)c1nc(C#N)ncc1Br
5. CC(C)CN(NC(=O)c1cccc(-c2ccncc2)c1)c1nc(C#N)ncc1Br
6. CC(C)CN(NC(=O)c1cc(-c2ccccc2)[nH]n1)c1nc(C#N)ncc1Br
7. CC(C)CN(NC(=O)c1cnc(-c2ccc3c(c2)CCO3)s1)c1nc(C#N)ncc1Cl
8. COc1ccc(CC(=O)NN(CC(C)C)c2nc(C#N)ncc2Br)cc1

["145 nM", "135 nM", "335 nM", "656 nM", "15 nM", "352 nM", "198 nM", "6 nM"]

Dear colleague, could you send me IC50 for each of the items below? Thanks.
1. CC(C)CN(NC(=O)c1cncc(-c2cccc(CN3CCN(C)CC3)c2)c1)c1nc(C#N)ncc1Br
2. CC(C)CN(NC(=O)c1cc2ccccc2cn1)c1nc(C#N)ncc1Cl

1. 4 nM
2. 333 nM

* * *

I'd appreciate it if you could supply pIC50 values for the items below.
# method summary: Inhibition of Plasmodium falciparum falcipain-3 expressed in Escherichia coli
One number for each entry, as −log10 of the molar value.

C[C@H]1CCC[C@H]1N(NC(=O)OC(C)(C)C)c1nc(C#N)ncc1Br (relative stereo) : 6.39

Dear colleague, could you send me pIC50 for each of the items below? Thanks.
1. COc1cccc2cc(C(=O)NN(CC(C)C)c3nc(C#N)ncc3Br)oc12
2. Cc1nc(-c2ccccc2)ncc1C(=O)NN(CC(C)C)c1nc(C#N)ncc1Br
3. CC(C)CN(NC(=O)c1cc2ccccc2o1)c1nc(C#N)ncc1Br

1: 6.40; 2: 6.78; 3: 6.25

* * *

I'd appreciate it if you could supply IC50 values for the items below.
# method summary: Inhibition of Plasmodium falciparum falcipain-3 expressed in Escherichia coli
Answers are plain numbers, in µM.

Dear colleague, could you send me IC50 for each of the items below? Thanks.
1. CC1OCCC1N(NC(=O)OC(C)(C)C)c1nc(C#N)ncc1Br (stereo not drawn)
2. CC(C)CN(NC(=O)Cc1ccc(CN2CCN(C)CC2)cc1)c1nc(C#N)ncc1Cl
3. Cc1nc2cc(C(=O)NN(CC(C)C)c3nc(C#N)ncc3Br)ccc2[nH]1

1. 0.098
2. 0.005
3. 0.027

* * *

# method summary: Inhibition of Plasmodium falciparum falcipain-3 expressed in Escherichia coli
I'd appreciate it if you could supply pIC50 values for the items below.
Answers are plain numbers, as −log10 of the molar value.

CC(C)CN(NC(=O)C1(c2ccccc2)CCCC1)c1nc(C#N)ncc1Br : 6.86

Dear colleague, could you send me pIC50 for each of the items below? Thanks.
1. Cc1ccc2[nH]c(C(=O)NN(CC(C)C)c3nc(C#N)ncc3Br)cc2c1
2. CC(C)CN(NC(=O)c1ccc2ccccc2n1)c1nc(C#N)ncc1Cl
3. CC(C)CN(NC(=O)c1csc(-c2ccccc2)n1)c1nc(C#N)ncc1Br
4. CC(C)CN(NC(=O)c1ccc(-n2cccn2)cc1)c1nc(C#N)ncc1Cl
5. CC(C)CN(NC(=O)c1cnoc1-c1ccccc1)c1nc(C#N)ncc1Cl
6. CC(C)CN(c1nc(C#N)ncc1Br)N(CCCN1CCN(C)CC1)C(=O)Cc1ccccc1

1: 5.82; 2: 6.60; 3: 6.89; 4: 6.83; 5: 6.89; 6: 7.57
